# Assay Details: NCI Yeast Anticancer Drug Screen. Data for the rad50 strain (AID 155);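 also: 0% = growth of vehicle-only cultures of the same strain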
# Experimental Context: S. cerevisiae rad50 strain growth inhibition; at 50.0 µM
The panel holds about 79,000 compounds, 15% with a hit somewhere; the sample as a whole holds those more often. The source made the active and inactive calls. Rule as the data show it: active = growth inhibition above about 70%; inactive = the rest.
I would appreciate it if you answered using one of these outcomes: true for active, false for inactive

*Q* Per the assay record, what outcome was assigned to O=c1ccc2c(-c3ccccc3O)c3ccc(O)cc3oc-2c1 ?
*A* true

*Q* // query: Nc1nc(-c2ccccc2)cc2ccccc12
*A* false

*Q* // query: CCN(CC)C(=O)C1CC=CCC1C(=O)O (centres undefined)
*A* false

*Q* // query: CSSC(SC)SC
*A* false

* * *

# Assay Details: NCI Yeast Anticancer Drug Screen. Data for the mlh1 rad18 strain (AID 175)
# Experimental Context: S. cerevisiae mlh1 rad18 strain growth inhibition; at 50.0 µM
The panel holds about 79,000 compounds, 15% with a hit somewhere; the sample as a whole holds those more often. Activity calls are given as the source filed them. Cut-off read from the data, not from the text of the source: active = growth inhibition above about 70%; inactive = the rest. Where a SMILES comes first, the peptide text is derived from it. The star is where a group is joined. Trt = c1ccc(C(c2ccccc2)(c2ccccc2)*)cc1
I would appreciate it if you answered using one of these outcomes: active, inactive

*Q* Per the assay record, what outcome was assigned to COc1cc2c(cc1O)C1CC(CC3CCCCN31)OC(=O)/C=C\c1ccc(O)c-2c1 (stereo unspecified) ?
*A* inactive

*Q* // query: NC(=O)SCC(N)C(=O)O (stereo unspecified)
*A* inactive

*Q* // query: Brc1cccc2ccc3ccccc3c12
*A* active

*Q* // query: CSC(SC)[P+](c1ccccc1)(c1ccccc1)c1ccccc1
*A* active

*Q* // query: COc1cc2c(cc1OC)C(Cc1ccccc1CCCl)=NCC2
*A* inactive

*Q* // query: O=C(OCCN1C(=O)c2cccc3c(Br)ccc(c23)C1=O)OCc1ccccc1
*A* active

*Q* // query: CN(N)C(=O)Nc1ccc([N+](=O)[O-])cc1
*A* inactive

*Q* // query: CC(=O)c1c(-c2ccccc2)noc1C
*A* inactive

*Q* // query: COC(=O)C(NC(=O)C(N)CSC(c1ccccc1)(c1ccccc1)c1ccccc1)C(C)C (stereo unspecified) (H-Cys(Trt)-Val-OMe; configuration not given here)
*A* active

*Q* // query: CCCC(C)(C)COC(=O)Cc1ccccc1
*A* inactive

*Q* // query: C/C(=N/NC(=O)c1ccccc1O)c1ccc(/C(C)=N\NC(=O)c2ccccc2O)c2nc3cc(C)c(C)cc3nc12
*A* inactive

*Q* // query: Cc1ccc(C(=O)Nc2c(C)cccc2C)cc1
*A* inactive

*Q* // query: Nc1cc(Nc2ccc(Cl)[nH]c2=S)nc(N)n1
*A* inactive

*Q* // query: CCCN1COC(OCCN(CC)CC)C(C)(C)C1 (stereo unspecified)
*A* inactive

*Q* // query: COc1cc2c(c(OC)c1OC)-c1ccc(OC)c(=O)cc1C(NC(=O)CCCCCNc1ccc(N=[N+]=[N-])cc1[N+](=O)[O-])CC2 (stereo unspecified)
*A* active

*Q* // query: O=C(N/N=C\C(F)(F)F)c1ccncc1
*A* inactive

* * *

# Assay Details: NCI Yeast Anticancer Drug Screen. Data for the sgs1 mgt1 strain (AID 161);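 also: 0% = growth of cultures given vehicle only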
# Experimental Context: S. cerevisiae sgs1 mgt1 strain, at 50.0 µM, hits give high values
The panel holds about 79,000 compounds, 15% with a hit somewhere; the sample as a whole holds those more often.
Recorded Endpoint: growth inhibition (%)
Give just the numeric value; % need not be written.

*Q* Can you look up the measured growth inhibition of NC=O for me?
*A* 7.1

*Q* // query: CC1(c2ccccc2)CCN(C2CC2)CO1 (stereo not given)
*A* 51.6

*Q* // query: CCOC(=O)/C(=C/c1ccc(N(CCC#N)CCC#N)cc1C)NC(=O)/C=C/c1ccccc1
*A* -16.2

*Q* // query: Nc1c(Br)cc(Br)cc1-c1cc(Br)cc(Br)c1N
*A* 10.4

*Q* // query: O=c1/c(=C/c2ccccc2O)sc2nc3ccccc3n12
*A* 18.9

*Q* // query: O=C(O)C(Br)C(Br)C(=O)Nc1ccc(F)cc1 (stereo not given)
*A* 99.7

*Q* // query: OCC(O)C(OC1OC(CO)C(O)C(O)C1O)C(O)c1cnn(-c2ccccc2)n1 (stereo not given)
*A* -24.3

*Q* // query: CC1=C(O)CC(=O)C1
*A* -6.9

*Q* // query: CCOc1ccc(Cc2ccccc2)cc1
*A* -7

*Q* // query: Cc1[nH]c(=O)[nH]c(=O)c1C(=O)N(CCO)Cc1ccccc1
*A* -24.9

*Q* // query: C/C(CCc1cnc2ccccc2c1)=N/NC(N)=O
*A* 85.7

*Q* // query: COC(=O)c1cc(C(=O)OC)c(CC(=O)C(=O)Nc2c(C(C)C)cccc2C(C)C)nc1CC(=O)C(=O)Nc1c(C(C)C)cccc1C(C)C
*A* -11.7

*Q* // query: CC(=O)Oc1cc(OC(C)=O)c2c(c1C)CC[C@@H]1[C@@H]2CC[C@]2(C)[C@@H](OC(C)=O)CC[C@@H]12
*A* -0.25

*Q* // query: NC(=S)N/N=C/c1cccc(CC(O)(C(F)(F)F)C(F)(F)F)n1
*A* 3.7

*Q* // query: O=C1Nc2ccccc2C1(N1CCCCC1)N1CCCCC1
*A* 18.5

* * *

# Assay Details: NCI Yeast Anticancer Drug Screen. Data for the rad50 strain (AID 155);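 also: 0% = growth of vehicle-only cultures of the same strain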
# Experimental Context: S. cerevisiae rad50 strain growth inhibition; at 50.0 µM; hits give high values
About 79,000 compounds went through this panel and 15% of them were active in at least one assay; those are over-represented in the sample as a whole.
Use 10% as the dividing line for growth inhibition, with the line itself on the satisfied side and lower values as not satisfied.

*Q* Say whether COc1ccc(C(=O)OC2CCCN(C(=O)c3ccc(OC)cc3)C2)cc1 (stereo unspecified) shows growth inhibition of 10% or more.
*A* not satisfied

*Q* // query: Nc1cccc(S(N)(=O)=O)c1
*A* satisfied

*Q* // query: N#C/C(=C\c1cc(Br)c(O)c(Br)c1)c1ccccn1
*A* satisfied

*Q* // query: CCOC(=O)c1cc2ccccc2oc1=O
*A* not satisfied

*Q* // query: N#Cc1nc(CC(=O)c2ccccc2Cl)c(CC(=O)c2ccccc2Cl)nc1C#N
*A* satisfied

*Q* // query: O=C1c2ccccc2CCC12OC2c1ccncc1 (stereo unspecified)
*A* satisfied

* * *

Give growth inhibition for every item shown.
# Assay Details: NCI Yeast Anticancer Drug Screen. Data for the mec2-1 strain (AID 157)
# Experimental Context: S. cerevisiae mec2-1 strain, at 50.0 µM, hits give high values
This is part of a sample that, as a whole, favours compounds with a hit. Of some 79,000 tested, about 15% had one in any assay.
Give just the numeric value; % need not be written.

*Q* Can you look up the measured growth inhibition of CCCCN(CCO)CCO for me?
*A* -8.45

*Q* // query: CCCC(O)c1ccccc1 (stereo not given)
*A* 35.8

*Q* // query: CCC1(C)CCC(C)(CC)c2cc(C)ccc21 (stereo not given)
*A* 9.15

*Q* // query: NC(=O)NC1CCCCCCC1
*A* -14.9

*Q* // query: Cc1nc(N)[nH]c(=O)c1CCO
*A* -23

*Q* // query: CN(C)c1ccc(/C=C(\C#N)C(=O)c2ccccc2)cc1
*A* 8.25

*Q* // query: Clc1ccc(/C=N/c2ccccn2)cc1
*A* -51.4

*Q* // query: C=C(C)CNC(C)=O
*A* 3

*Q* // query: COc1ccc(NC(=O)CSc2nnc(Cc3ccccc3)o2)cc1
*A* -37.4

*Q* // query: COC(=O)C1=C(C(=O)OC)C23CC4CCC2(C(=O)C1O3)C4(C)C (stereo not given)
*A* 18

* * *

# Assay Details: NCI Yeast Anticancer Drug Screen. Data for the mec2-1 strain (AID 157)
# Experimental Context: S. cerevisiae mec2-1 strain, at 50.0 µM, hits give high values
# Protocol: Growth inhibition of yeast strains with defined genetic alterations is measured as a screen for potential anti-cancer activity. Selected strains with alterations in DNA damage repair or cell cycle control were exposed to compounds and growth inhibition was measured relative to vehicle treated controls. The strain used in this assay is mec2-1
The panel holds about 79,000 compounds, 15% with a hit somewhere; the sample as a whole holds those more often.
Recorded Endpoint: growth inhibition (%)
Give just the numeric value; % need not be written.

*Q* Can you look up the measured growth inhibition of CC1CCCC(C)N1 (stereo unspecified) for me?
*A* -9.05

*Q* // query: Cc1ccc(Cc2nn(C)c(=O)n2N)cc1
*A* -2.5

*Q* // query: Cc1c(CCCl)c(=O)n2c([nH]c3ccccc32)c1C#N
*A* -56.5

*Q* // query: c1ccc2c(c1)[nH]c1ccncc12
*A* 0.1

*Q* // query: O=[N+]([O-])c1ccc(N/N=C2/CC3=C2CCCCCCCCCC3)c([N+](=O)[O-])c1
*A* -4.95

*Q* // query: S=c1cc(S)sc2c1c(=S)sc1nc3ccccn3c(=S)c12
*A* 28.6

*Q* // query: CCN(CC)CCOC(=O)OCCN(CC)CC
*A* -12.1

*Q* // query: O=C(OCC1OC(OC(=O)c2ccccc2)C(O)C1OC(=O)c1ccccc1)c1ccccc1 (stereo unspecified)
*A* 15.7

*Q* // query: O=C1COCC(=O)N1
*A* -22

*Q* // query: Cc1nc2nc[nH]n2c1N=Nc1ccccc1
*A* -2.55

*Q* // query: Cc1ccc([N+](=O)[O-])c(N)c1
*A* 27.4

*Q* // query: Cc1[nH]c2ccccc2c(=O)c1-c1ccccc1
*A* -14.2

*Q* // query: O=C(O)COc1ccccc1-c1ccccc1
*A* -13.7

*Q* // query: OC(C/C=N/N=C/CC(O)(C(F)(F)Cl)C(F)(F)Cl)(C(F)(F)Cl)C(F)(F)Cl
*A* 28.3

*Q* // query: CN1C(=O)Cc2ccccc21
*A* -7.25

*Q* // query: CC(=O)CC(C)(C)NNC(N)=S
*A* 0.7

*Q* // query: CCCCC(C(=O)O)C(C)CC (stereo unspecified)
*A* 12.2

*Q* // query: N#C/C(=C\NC(=S)Nc1ccccc1Cl)C(=O)c1ccc2ccccc2c1
*A* -18

*Q* // query: Cc1cc(Cl)ccc1N1C(=O)C(=O)C(c2nc3ccccc3s2)C(=O)C1=O
*A* 13.7

*Q* // query: COC(=O)c1nc(N)nc(C(=O)OC)c1C(=O)c1c(C)[nH]c2ccccc12
*A* -20

*Q* // query: CC(C)N(CCC#N)C(=S)Nc1cccc2ccccc12
*A* 10.1
